# Test system: 786-0 renal
# Test method notes: NCI-60 one-dose screen, 48 h (100 = growth as untreated, 0 = no growth, -100 = all killed)
# Condition info: 10 µM
About 83,000 compounds went through this panel and 20% of them were active in at least one assay; those are over-represented in the sample as a whole.
growth values, listed per item
Return type: number; implicit unit %.

Examples with answers:
Molecule: CCCCCCCCCCC(C)Br (configuration not stated)
Tgt: 786-0 renal
Units: %
growth: 97
//
Molecule: CN(C)C(=O)Oc1cccc([N+](C)(C)C)c1
Tgt: 786-0 renal
Units: %
growth: 116
//
Molecule: CCCCCCCCO
Tgt: 786-0 renal
Units: %
growth: 102
//
Molecule: O=c1cc(-c2ccccc2)oc2c1ccc1ccccc12
Tgt: 786-0 renal
Units: %
growth: 99.4
//
Molecule: O=[N+]([O-])c1ccc(S(=O)(=O)NN=C2CCCCC2)cc1
Tgt: 786-0 renal
Units: %
growth: 103

Look up and report measured growth for this entry: "CN(C)c1ccc2nc3ccc(=N)cc-3sc2c1"
66.2

Look up and report measured growth for this entry: "COc1ccc(/C(C#N)=C2C=C/C(=N/O)c3ccccc3\2)cc1"
16.8
